Hey, just so you know, these numbers are from patent US20250002574A1.

tested-system: T1, IL-11 (UniProt P20809 22-199, limits assumed)
T1 construct: also called IL-11 protein; IL-11 antigen
T1 sequence (looked up): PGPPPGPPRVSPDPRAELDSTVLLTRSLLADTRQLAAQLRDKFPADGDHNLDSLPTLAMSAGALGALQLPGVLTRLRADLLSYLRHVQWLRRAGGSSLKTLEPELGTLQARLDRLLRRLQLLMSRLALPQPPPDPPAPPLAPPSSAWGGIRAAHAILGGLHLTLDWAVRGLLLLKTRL
protocol-notes: SPR Biacore, scFv captured, IL-11 400 nM
endpoint-name: Kd
Value and unit, in that order.

Task: GET /values?readout=Kd&item= “VH2+VL4”-scFv (scFv) scFv: QVQLVQSGAEVKKPGASVKVSCKASDYTFTNYWLGWVRQAPGQGLEWIGHIYPGGGYTNYNEKFKGRVTMTADTSTSTVYMELSSLRSEDTAVYFCARVRSGNDALDFWGQGTLVTVSSGGGGSGGGGSGGGGSEIVLTQSPATLSLSPGERATLSCRASESVDEYGISFMNWFQQKPGQAPRLLIYSASNQGSGIPARFSGSGSGTDFTLTISSLEPEDFAMYFCQQSKEVPWTFGGGTKLEIK
Output: 10.8 nM

Task: GET /values?readout=Kd&item= “VH2+VL3”-scFv (scFv) scFv: QVQLVQSGAEVKKPGASVKVSCKASDYTFTNYWLGWVRQAPGQGLEWIGHIYPGGGYTNYNEKFKGRVTMTADTSTSTVYMELSSLRSEDTAVYFCARVRSGNDALDFWGQGTLVTVSSGGGGSGGGGSGGGGSEIVLTQSPATLSLSPGERATLSCRASESVDEYGISFMNWFQQKPGQAPRLLIYSASNQGSGIPARFSGSGSGTDFTLTISSLEPEDFAVYFCQQSKEVPWTFGGGTKLEIK
Output: 11.9 nM

Task: GET /values?readout=Kd&item= “VH1+VL4”-scFv (scFv) scFv: QVQLVQSGAEVKKPGASVKVSCKASDYTFTNYWLGWVRQAPGQGLEWMGHIYPGGGYTNYNEKFKGRVTMTRDTSTSTVYMELSSLRSEDTAVYYCARVRSGNDALDFWGQGTLVTVSSGGGGSGGGGSGGGGSEIVLTQSPATLSLSPGERATLSCRASESVDEYGISFMNWFQQKPGQAPRLLIYSASNQGSGIPARFSGSGSGTDFTLTISSLEPEDFAMYFCQQSKEVPWTFGGGTKLEIK
Output: 11.7 nM
